# System: PXR:RXRa (NR concentration 270 nM, RXRa partner concentration 90 nM)
# assay.info: PBM binding z-score (relative to random genomic background probes); higher = stronger binding; sequences stand for … in GC…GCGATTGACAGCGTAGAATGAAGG
Answer each item with its documented PBM binding z-score.
API note: the answer field is a bare number with no unit suffix.

Measured PBM binding z-score, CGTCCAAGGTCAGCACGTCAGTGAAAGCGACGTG : 2.31

For record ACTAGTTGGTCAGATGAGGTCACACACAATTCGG the listed PBM binding z-score is 5.55

Form: sequence = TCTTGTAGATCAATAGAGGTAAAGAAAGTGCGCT ; PBM binding z-score = 0.573

Please fill in: PBM binding z-score reported for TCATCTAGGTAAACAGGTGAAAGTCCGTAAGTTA = 0.409

Short answer for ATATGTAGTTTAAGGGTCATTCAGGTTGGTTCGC : PBM binding z-score was 5.01

Recorded PBM binding z-score (sequence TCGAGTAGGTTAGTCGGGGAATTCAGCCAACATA ): -0.311

Lab note: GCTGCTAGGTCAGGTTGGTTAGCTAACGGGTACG gave PBM binding z-score of 0.32

So for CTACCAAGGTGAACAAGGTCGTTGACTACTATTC , the logged PBM binding z-score turned out to be 2.98

PBM binding z-score recorded for this sequence, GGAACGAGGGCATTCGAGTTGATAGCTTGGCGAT , is 3.79

Form: sequence = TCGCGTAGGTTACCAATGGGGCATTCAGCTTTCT ; PBM binding z-score = 0.0701

response.value for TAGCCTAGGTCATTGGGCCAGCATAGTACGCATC (field: PBM binding z-score) = 1.58

Sure, the documented PBM binding z-score for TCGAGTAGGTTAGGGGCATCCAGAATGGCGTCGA is 0.349

* * *

# Tested on: PPARg:RXRa DBDmut IVT, anti-RXR (DBD mutation: RXRa K156A/R161A, NR concentration 270 nM, RXRa partner concentration 90 nM)
# assay.info: PBM binding z-score (relative to random genomic background probes); higher = stronger binding; sequences stand for … in GC…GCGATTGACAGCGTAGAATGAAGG
Label true (1) when PBM binding z-score >= 0.8; otherwise false (0).

Would you say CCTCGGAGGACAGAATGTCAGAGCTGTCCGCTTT shows PBM binding z-score at minimum 0.8?
false (0)

Please tell me: is the sequence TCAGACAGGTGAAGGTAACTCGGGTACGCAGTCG at or over 0.8 in terms of PBM binding z-score?
true (1)

In plain terms: is recorded PBM binding z-score at least 0.8 for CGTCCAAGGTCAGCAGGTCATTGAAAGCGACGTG ?
true (1)

Quick check: does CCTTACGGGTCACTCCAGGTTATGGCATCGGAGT have PBM binding z-score greater than or equal to 0.8?
true (1)

Can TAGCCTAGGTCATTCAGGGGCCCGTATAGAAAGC be said to have PBM binding z-score at or above 0.8?
true (1)

Is reported PBM binding z-score greater than or equal to 0.8 here: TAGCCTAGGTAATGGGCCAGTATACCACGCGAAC
false (0)

Tell me whether PBM binding z-score is at least 0.8 here: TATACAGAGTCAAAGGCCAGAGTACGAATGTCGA
false (0)

Threshold query (PBM binding z-score >= 0.8) on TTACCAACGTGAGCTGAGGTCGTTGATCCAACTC
false (0)

PBM binding z-score >= 0.8 for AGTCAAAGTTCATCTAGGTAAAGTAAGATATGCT ?
true (1)

Check if PBM binding z-score >= 0.8 (inclusive). Item: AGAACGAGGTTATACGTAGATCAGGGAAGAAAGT
true (1)

# bool: PBM binding z-score of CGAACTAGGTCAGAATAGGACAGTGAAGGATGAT >= 0.8
true (1)

Threshold query (PBM binding z-score >= 0.8) on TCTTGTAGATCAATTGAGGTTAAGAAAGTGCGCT
true (1)

Check if PBM binding z-score >= 0.8 (inclusive). Item: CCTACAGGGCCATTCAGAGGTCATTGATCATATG
false (0)

hey, is PBM binding z-score for this one >= 0.8? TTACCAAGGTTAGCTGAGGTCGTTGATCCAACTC
false (0)

Could you please find out whether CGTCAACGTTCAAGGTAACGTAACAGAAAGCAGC has PBM binding z-score that meets 0.8 or exceeds it?
false (0)

State whether the measured PBM binding z-score reaches 0.8, counting equality as reaching it, for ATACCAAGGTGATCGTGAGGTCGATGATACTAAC
false (0)

Assess whether reported PBM binding z-score for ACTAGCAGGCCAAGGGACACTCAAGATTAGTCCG sits at 0.8 or higher.
false (0)

Entry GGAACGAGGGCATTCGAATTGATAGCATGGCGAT : is its PBM binding z-score no less than 0.8?
true (1)

Please check the record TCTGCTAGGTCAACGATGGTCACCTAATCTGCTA and state if its PBM binding z-score is at or above 0.8.
true (1)

Does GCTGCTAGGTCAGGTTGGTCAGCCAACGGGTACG have a reported PBM binding z-score of at least 0.8?
true (1)

Can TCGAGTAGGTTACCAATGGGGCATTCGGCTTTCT be said to have PBM binding z-score at or above 0.8?
true (1)

Is it the case that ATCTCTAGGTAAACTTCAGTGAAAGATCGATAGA has PBM binding z-score reaching or exceeding 0.8?
true (1)

Test whether the sequence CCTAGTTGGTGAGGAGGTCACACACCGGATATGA records PBM binding z-score of 0.8 or higher.
false (0)

Hello, I need to know if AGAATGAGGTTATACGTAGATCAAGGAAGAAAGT has measured PBM binding z-score not below 0.8. Thanks!
true (1)

Quick check, PBM binding z-score >= 0.8? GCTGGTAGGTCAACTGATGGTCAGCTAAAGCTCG
true (1)

Hi, just wondering whether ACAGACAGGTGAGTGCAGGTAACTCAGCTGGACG shows PBM binding z-score of 0.8 or higher.
false (0)

* * *

# Test system: RARg:RXRa (NR concentration 270 nM, RXRa partner concentration 90 nM)
# assay.info: PBM binding z-score (relative to random genomic background probes); higher = stronger binding; sequences stand for … in GC…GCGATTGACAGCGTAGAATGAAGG
Exercise: for every item that follows, state its recorded PBM binding z-score.
Just the number, please, no unit after it.

Measured PBM binding z-score of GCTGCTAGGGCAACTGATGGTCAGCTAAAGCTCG : 0.792

The reported PBM binding z-score of the sequence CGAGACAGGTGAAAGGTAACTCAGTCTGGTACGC was 1.2

Notebook: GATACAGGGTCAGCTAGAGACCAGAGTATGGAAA , PBM binding z-score read as 4.48

Sure, the documented PBM binding z-score for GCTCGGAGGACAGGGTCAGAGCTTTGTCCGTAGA is 2.42

Sample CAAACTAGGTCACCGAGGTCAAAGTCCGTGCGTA ; PBM binding z-score observed: 6.99

Sample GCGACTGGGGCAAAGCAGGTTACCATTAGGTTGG ; PBM binding z-score observed: 0.369

Record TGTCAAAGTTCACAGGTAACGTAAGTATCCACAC , field PBM binding z-score: 5.7

According to the records, this sequence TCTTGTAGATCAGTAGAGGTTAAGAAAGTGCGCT displays PBM binding z-score of 0.475

Recorded result, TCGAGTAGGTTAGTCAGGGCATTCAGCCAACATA , PBM binding z-score: -0.14

Value of PBM binding z-score reported for the sequence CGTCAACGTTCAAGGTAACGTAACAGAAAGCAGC is 0.115

The measured PBM binding z-score associated with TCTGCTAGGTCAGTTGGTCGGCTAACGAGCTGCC reads 2.28

Entry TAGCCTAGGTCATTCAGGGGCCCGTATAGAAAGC — recorded PBM binding z-score = 4.22

* * *

# Test system: RARg:RXRa (NR concentration 270 nM, RXRa partner concentration 90 nM)
# assay.info: PBM binding z-score (relative to random genomic background probes); higher = stronger binding; sequences stand for … in GC…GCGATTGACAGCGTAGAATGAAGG
readout.label: PBM binding z-score
Would you mind answering with just the numeric figure?

Input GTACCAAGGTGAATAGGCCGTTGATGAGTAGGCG . Output PBM binding z-score: 0.98

So, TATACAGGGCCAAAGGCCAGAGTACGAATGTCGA ? Its PBM binding z-score was 1.16

Entry under test: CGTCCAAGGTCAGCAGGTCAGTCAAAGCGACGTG . Its PBM binding z-score was 6.35

The value of PBM binding z-score measured for the sequence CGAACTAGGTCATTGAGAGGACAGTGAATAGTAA turned out to be 5.93

Measured PBM binding z-score, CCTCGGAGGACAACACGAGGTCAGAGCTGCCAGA : 3.58

get_value(item= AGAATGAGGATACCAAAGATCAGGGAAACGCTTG , readout=PBM binding z-score) returns 0.287

Item: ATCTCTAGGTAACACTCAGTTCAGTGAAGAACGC | PBM binding z-score: 0.926

Per the record, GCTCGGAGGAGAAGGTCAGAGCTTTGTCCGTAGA has PBM binding z-score of 2.15

Kindly note the recorded PBM binding z-score for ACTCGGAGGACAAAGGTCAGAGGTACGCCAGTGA , which is 5.98

Reported PBM binding z-score ( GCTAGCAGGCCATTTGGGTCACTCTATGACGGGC ) = 0.776

Reported PBM binding z-score for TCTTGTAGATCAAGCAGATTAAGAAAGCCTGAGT was -0.157

Quick note, PBM binding z-score for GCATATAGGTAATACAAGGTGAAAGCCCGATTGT landed at 0.492
